Please respond with reported growth inhibition for every item in the list.
# experimental-details: NCI Yeast Anticancer Drug Screen. Data for the rad50 strain (AID 155);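 note: 0% = growth of vehicle-only cultures of the same strain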
# setup-conditions: S. cerevisiae rad50 strain growth inhibition; at 50.0 µM; stronger effect = higher value
The panel holds about 79,000 compounds, 15% with a hit somewhere; the sample as a whole holds those more often.
Numbers only, in %.

CC(C)CC/C(=N\NC(N)=O)C1CCOCC1; -3.1

Return reported growth inhibition values for all items listed beneath this line.
1. CN1C(=O)N(C)C2=NC(=O)N(C)C2(C(Cl)(Cl)Cl)C1=O (stereo not given)
2. CCOC(=O)CNC(=O)C(Cc1ccccc1)NC(=O)CNC(=O)OCc1ccccc1 (stereo not given)

45.3
22.4

Return reported growth inhibition values for all items listed beneath this line.
1. CC(C)NC(=O)NCCc1c[nH]c2ccccc12
2. c1ccc(C(c2cccc3c2ccc2ccccc23)C(c2ccccc2)c2cccc3c2ccc2ccccc23)cc1 (stereo not given)
3. Nc1nc(Sc2ccc([N+](=O)[O-])c3nonc23)c2[nH]cnc2n1

-49.9
4.75
17.1

Return reported growth inhibition values for all items listed beneath this line.
1. O=C1c2ccccc2C(=O)N1Cc1ccccc1
2. O=S(=O)(CCc1ccccc1)c1nc2ccccc2s1

1. 3.55
2. -1.5

Return reported growth inhibition values for all items listed beneath this line.
1. CCOC(=O)CCC(NC(=O)c1ccc(Nc2cnc3cc(C(F)(F)F)ccc3n2)cc1)C(=O)OCC (stereo not given)
2. O=C(CN1C(=O)c2ccccc2C1=O)NC1(C(=O)O)CCCC1
3. N#C/C(=C/C=C/c1ccccc1)c1ccc([N+](=O)[O-])cc1
4. CCN(CC)C1=CC(=O)OC1OC (stereo not given)
5. O=S(=O)(Cl)c1cccc2c(S(=O)(=O)Cl)cccc12
6. CC(C)=CC(=O)C/C(=N\NC(N)=S)C(=O)Nc1ccc(Cl)cc1

1: 0.1; 2: -3.25; 3: 22; 4: -9.65; 5: 7; 6: -7.4

Return reported growth inhibition values for all items listed beneath this line.
1. CCOC(=O)/C(C)=C/CC1=C(O)c2ccccc2C(=O)C1=O
2. Cc1c2oc3c(C)ccc(C(=O)NCCN4CCOCC4)c3nc-2c(C(=O)NCCN2CCOCC2)c(N)c1=O
3. CC1(O)c2ccccc2-c2c1n([O-])c1ccccc1[n+]2=O (stereo not given)
4. CC12CCC(NC(=O)C3CCCN3C(=O)OCc3ccccc3)CC1CCC1C2CCC2(C)C(NC(=O)C3CCCN3C(=O)OCc3ccccc3)CCC12 (stereo not given)
5. CC(=O)OC1CCC2(C)C(=CCC3C2CCC2(C)C3CC(Br)C2(O)C(C)=O)C1 (stereo not given)
6. COc1ccc(NC(=O)C(=O)Cc2nc3ccc(C(=O)c4ccccc4)cc3[nH]c2=O)c([N+](=O)[O-])c1
7. CCSSC12CCCN1C(=O)C1CCCN1C2=O (stereo not given)

[7.3, -8.1, 7.9, -4.3, 41.9, 36, 49]

Return reported growth inhibition values for all items listed beneath this line.
1. CC1(COc2ccccc2)NC(=O)c2ccccc2O1 (stereo not given)
2. COc1ccc(C(C)=O)cc1CCCO
3. CN(C)Cc1cc(C(=O)/C=C/c2c(Cl)cccc2Cl)cc(CN(C)C)c1O
4. CCOC(=O)C1=C(O)c2ccc(OC)cc2C(=O)C1=O
5. CCOC(=O)c1cnc2c(ccc3ncccc32)c1OCC

[-5.85, -1.55, -32, -5.5, -12.2]

Return reported growth inhibition values for all items listed beneath this line.
1. CCOC(=O)C(=O)Nc1c(N(CC)CC)n2ccccc2nc1=O
2. O=C1NC(=O)C2(CC3CCCCC3CC2c2ccccc2)N1 (stereo not given)
3. Clc1cccc(N2CCN(CCN3CCc4c([nH]c5ccccc45)C3c3cccnc3)CC2)c1 (stereo not given)

1. 5.75
2. 17.1
3. 2.2

Return reported growth inhibition values for all items listed beneath this line.
1. COc1cc2oc(-c3ccc(O)cc3)cc(=O)c2c(OC)c1OC
2. COC(=O)c1c(-c2ccccc2)cc2c3cc(-c4ccccc4)c(C(=O)OC)n3c3ccccc3n12
3. CCC1(C#CCN2C(=O)c3ccccc3C2=O)C=CC2(CC1)OCCO2 (stereo not given)
4. O=C(NNc1ccccc1)c1ccc(Cl)cc1Cl

1. -4.35
2. -2.35
3. 10.2
4. 3.5
